B1: Osa-1-4 twister ribozyme (parent)
chain: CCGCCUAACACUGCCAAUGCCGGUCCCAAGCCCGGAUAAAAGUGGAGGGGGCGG

Variants of: B1
EXPERIMENT SUMMARY: self-cleavage, relative activity (ratio to wild type); higher = more cleavage; co-transcriptional
Would you please tag the item true when its self-cleavage is 0.1 or above, and false when it is below?

Worked examples, 10 variants total:
A46G G47U :: false
A16C G35U :: true
A10C G51A :: false
G47C U37G :: true
C31A U24C :: false
A8C G54A :: false
C21G G13U :: false
A41G G19U :: false
A40U C25G :: false
A7U G48U :: false

Consider the record given below.
Can C15U U12C be said to have self-cleavage at or above 0.1?
false
